# Species: Homo sapiens
# EXPERIMENT_DESCRIPTION: Inhibition of 10 uM ADP induced platelet aggregation in human platelet rich citreated plasma (PRP)
# Assay type: functional
*1 amine or outer side, *2 acyl side, *3 side chain or, on linkers, in order; H or OH if unused. Where a SMILES comes first, the peptide text is derived from it. Bridges are numbered along the chain shown (N, C = ends). X1 = O=C(CC1(S[*:2])CCCCC1)[*:1]; X4 = C[C@H](S[*:2])C(=O)[*:1]
Recorded IC50 for the following compounds
Unit µM implied. Number only.

- CC(C)C[C@@H]1NC(=O)[C@H](CC(=O)O)NC(=O)CNC(=O)[C@H](CCCNC(=N)N)NC(=O)[C@H](Cc2c[nH]cn2)NC(=O)CNC(=O)CC2(CCCCC2)SSC[C@@H](C(=O)N[C@@H](C)C(=O)O)NC(=O)[C@H](CCCNC(=N)N)NC1=O (GHRGDLRCA-OH; linker N-8 via X1): 5.9
- COc1ccc(C[C@@H]2NC(=O)[C@H](CC(=O)O)NC(=O)CNC(=O)[C@H](CCCNC(=N)N)NC(=O)[C@@H](Cc3ccc(O)cc3)NC(=O)CNC(=O)[C@@H](NC(=O)[C@@H](N)CCCNC(=N)N)C3(CCCCC3)SSC[C@@H](C(=O)N[C@@H](CCCNC(=N)N)C(=O)O)NC(=O)[C@H](CCCNC(=N)N)NC2=O)cc1: 0.52
- CC[C@H](C)[C@@H]1NC(=O)[C@@H](NC(C)=O)CSSC[C@@H](C(N)=O)NC(=O)[C@H](CCCN=C(N)N)NC(=O)[C@H](Cc2ccc([N+](=O)[O-])cc2)NC(=O)[C@H](CC(=O)O)NC(=O)CNC(=O)[C@H](CCCN=C(N)N)NC(=O)[C@@H]2CCCN2C1=O: 0.21
- CCCCOc1ccc(C[C@@H]2NC(=O)[C@H](CC(=O)O)NC(=O)CNC(=O)[C@H](CCCN=C(N)N)NC(=O)[C@@H]3CCCN3C(=O)[C@H]([C@@H](C)CC)NC(=O)[C@@H](NC(C)=O)CSSC[C@@H](C(N)=O)NC(=O)[C@H](CCCN=C(N)N)NC2=O)cc1: 0.48
- CC(C)C[C@@H]1NC(=O)[C@H](CC(=O)O)NC(=O)CNC(=O)[C@H](CCCNC(=N)N)NC(=O)[C@H](Cc2c[nH]cn2)NC(=O)CNC(=O)[C@@H](NC(=O)[C@@H](N)CCCNC(=N)N)C2(CCCC2)SSC[C@@H](C(=O)N[C@@H](CCCNC(=N)N)C(=O)O)NC(=O)[C@H](CCCNC(=N)N)NC1=O: 4.1

# input compound: COc1ccc(C[C@@H]2NC(=O)[C@H](CC(=O)O)NC(=O)CNC(=O)[C@H](CCCN=C(N)N)NC(=O)[C@@H]3CCCN3C(=O)[C@H](CC(N)=O)NC(=O)[C@H](C)SSC[C@@H](C(N)=O)NC(=O)[C@H](CCCN=C(N)N)NC2=O)cc1 (NPRGDY(Me)RC-NH2; linker N-8 via X4) ; wanted: its IC50
0.17

What do you have for `CCOc1ccc(C[C@@H]2NC(=O)[C@H](CC(=O)O)NC(=O)CNC(=O)[C@H](CCCN=C(N)N)NC(=O)[C@@H]3CCCN3C(=O)[C@H](CC(N)=O)NC(=O)[C@@H](NC(C)=O)CSSC[C@@H](C(N)=O)NC(=O)[C@H](CCCN=C(N)N)NC2=O)cc1` ?
0.22

Input `COc1ccc(C[C@@H]2NC(=O)[C@H](CC(=O)O)NC(=O)CNC(=O)[C@H](CCCN=C(N)N)NC(=O)[C@H](Cc3c[nH]cn3)NC(=O)[C@H](CCCN=C(N)N)NC(=O)[C@@H](NC(=O)[C@@H](N)CCCN=C(N)N)C3(CCCCC3)SSC[C@@H](C(=O)N[C@@H](CCCN=C(N)N)C(=O)O)NC(=O)[C@H](CCCN=C(N)N)NC2=O)cc1`
0.44
